- TESTED_TARGET: EGFR(WT) (Homo sapiens, UniProt P00533)
- Construct: made in house; host or cells: insect cell expression system
- Sequence (P00533 25-1210): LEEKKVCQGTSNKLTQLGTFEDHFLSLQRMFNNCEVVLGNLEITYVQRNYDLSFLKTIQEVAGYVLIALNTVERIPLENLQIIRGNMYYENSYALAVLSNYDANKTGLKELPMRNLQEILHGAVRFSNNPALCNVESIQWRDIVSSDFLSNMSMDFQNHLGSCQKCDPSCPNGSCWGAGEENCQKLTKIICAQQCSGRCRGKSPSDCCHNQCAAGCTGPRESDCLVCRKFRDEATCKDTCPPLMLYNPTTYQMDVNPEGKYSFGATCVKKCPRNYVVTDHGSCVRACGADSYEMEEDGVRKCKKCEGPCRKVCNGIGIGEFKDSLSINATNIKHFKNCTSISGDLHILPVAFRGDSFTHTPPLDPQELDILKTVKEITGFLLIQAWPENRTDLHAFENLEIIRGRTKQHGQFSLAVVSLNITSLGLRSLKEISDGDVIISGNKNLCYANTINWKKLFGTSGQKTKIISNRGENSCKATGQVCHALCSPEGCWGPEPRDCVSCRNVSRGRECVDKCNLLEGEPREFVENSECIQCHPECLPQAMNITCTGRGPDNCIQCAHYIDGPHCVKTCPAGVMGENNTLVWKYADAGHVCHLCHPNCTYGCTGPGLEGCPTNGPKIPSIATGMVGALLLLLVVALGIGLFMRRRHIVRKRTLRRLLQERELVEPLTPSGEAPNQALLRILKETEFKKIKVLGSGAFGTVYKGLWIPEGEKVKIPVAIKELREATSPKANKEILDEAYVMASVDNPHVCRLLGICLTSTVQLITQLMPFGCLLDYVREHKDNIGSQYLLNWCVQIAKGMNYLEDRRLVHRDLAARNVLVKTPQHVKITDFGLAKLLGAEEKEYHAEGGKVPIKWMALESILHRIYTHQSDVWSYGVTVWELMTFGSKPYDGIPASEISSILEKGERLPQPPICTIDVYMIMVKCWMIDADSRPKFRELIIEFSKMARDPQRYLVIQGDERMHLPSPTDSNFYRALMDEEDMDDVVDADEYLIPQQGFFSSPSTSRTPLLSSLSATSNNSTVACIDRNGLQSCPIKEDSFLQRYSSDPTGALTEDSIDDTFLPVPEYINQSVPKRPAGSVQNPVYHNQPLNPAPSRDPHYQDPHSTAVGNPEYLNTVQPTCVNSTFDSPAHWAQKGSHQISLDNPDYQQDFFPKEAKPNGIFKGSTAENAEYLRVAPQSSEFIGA
- PROCEDURE_TEXT: In vitro enzymatic assay (HTRF), EGFR kinase
- Format: biochemical
Where a name gives a salt, the structure may show the parent alone.
TEST_READOUT: IC50 (nM)
Numbers only, in nM.

// known answers, use as guide
COMPOUND | READING_UNIT | REPORTED
COC/C=C/C(=O)Nc1cc(Nc2nccc(-n3c(=O)n(C)c4ccccc43)n2)c(OC)cc1N(C)CCN(C)C | nM | 164
C=CC(=O)Nc1cc(Nc2nccc(-n3c(=O)[nH]c4cc(C)ccc43)n2)c(OC)cc1N(C)CCN(C)C [Example 9, Hydrochloride] | nM | 3.93
C=CC(=O)Nc1cc(Nc2ncc(Cl)c(-n3c(=O)n(C)c4ccccc43)n2)c(OC)cc1N(C)CCN(C)C [Example 3, Hydrochloride] | nM | 196
C=CC(=O)Nc1cc(Nc2nccc(-n3c(=O)n(C)c4cc(F)ccc43)n2)c(OC)cc1N(C)CCN(C)C [Example 10, Hydrochloride] | nM | 10.7
C=CC(=O)Nc1cc(Nc2nccc(-n3c(=O)[nH]c4cc(F)ccc43)n2)c(OC)cc1N(C)CCN(C)C [Example 11, Hydrochloride] | nM | 2.79

Each compound below has a reported value. Please supply its IC50.
1. C=CC(=O)Nc1cc(Nc2nccc(-n3c(=O)[nH]c4ccccc43)n2)c(OC)cc1N(C)CCN(C)C [Example 2, Hydrochloride]
2. C=CC(=O)Nc1cc(Nc2nccc(-n3c(=O)n(C)c4ccccc43)n2)c(OC)cc1N(C)CCNC [Example 12, Hydrochloride]
3. C=CC(=O)Nc1cc(Nc2nccc(-n3c(=O)oc4ccccc43)n2)c(OC)cc1N(C)CCN(C)C [Example 5, Hydrochloride]

[2.59, 5.26, 44.9]

Each compound below has a reported value. Please supply its IC50.
1. C=CC(=O)Nc1cc(Nc2ncc(Cl)c(-n3c(=O)[nH]c4ccccc43)n2)c(OC)cc1N(C)CCN(C)C [Example 4, Hydrochloride]
2. C=CC(=O)Nc1cc(Nc2nccc(-n3c(=O)n(C)c4ccccc43)n2)c(OC)cc1N(C)CCN(C)C [Example 1, Hydrochloride]

[20.6, 9.07]

----------
- Tested on: Human skin squamous carcinoma cell line A431
- PROCEDURE_TEXT: Cell proliferation assay, A431 (soft agar, CellTiter-Blue)
- Assay type: cell-based
- DETAILS: A-431, 168 h, A431, treatment 7 days, read-out: Cell viability (IC50 nM) A431
Where a name gives a salt, the structure may show the parent alone.
TEST_READOUT: IC50 (nM)
Numbers only, in nM.

// known answers, use as guide
COMPOUND | TESTED_TARGET | IC50, nM
C=CC(=O)Nc1cc(Nc2nccc(-n3c(=O)n(C)c4cc(Cl)ccc43)n2)c(OC)cc1N(C)CCN(C)C [Example 14, Hydrochloride] | Human skin squamous carcinoma cell line A431 | 538
C=CC(=O)Nc1cc(Nc2nccc(-n3c(=O)n(C)c4cc(Br)ccc43)n2)c(OC)cc1N(C)CCN(C)C [Example 15, Hydrochloride] | Human skin squamous carcinoma cell line A431 | 834
C=CC(=O)Nc1cc(Nc2nccc(-n3c(=O)n(C)c4ccccc43)n2)c(OC)cc1N(C)CCN(C)C [Example 1, Hydrochloride] | Human skin squamous carcinoma cell line A431 | 22.5

Switching to the query record.
Note to self: IC50 of C=CC(=O)Nc1cc(Nc2nccc(-c3cn(C)c4ccccc34)n2)c(OC)cc1N(C)CCN(C)C [AZD9291, reference compound] with Human skin squamous carcinoma cell line A431 was 53.5

----------
- PROCEDURE_TEXT: Pharmacokinetic assay in rats
- Format: in vivo
- DETAILS: rat; male rats, PO 10 mg/kg single dose, plasma; read-out: Tmax
TEST_READOUT: Tmax

Recorded result, C=CC(=O)Nc1cc(Nc2nccc(-n3c(=O)n(C)c4ccccc43)n2)c(OC)cc1N(C)CCN(C)C [Example 13] , Tmax: 40.2 min
